- TARGET_DESC: UniProt:Q13639
- EXPERIMENTAL_DETAILS: Radioligand binding assay on 5-HT4(c) human receptors
- Design: expressed in transfected cells
MEASURE: Ki

Reported Ki, compound CC(=O)N1CCN(CCN2C3CCC2CC(NC(=O)c2nn(C(C)C)c4ccccc24)C3)CC1 (stereo not shown) [compound of formula I] : ____
< 100 nM

* * *

- TARGET_DESC: human 5-HT4(c) receptor (Homo sapiens, UniProt Q13639)
- Sequence (Q13639 1-380 isoform Q13639-4): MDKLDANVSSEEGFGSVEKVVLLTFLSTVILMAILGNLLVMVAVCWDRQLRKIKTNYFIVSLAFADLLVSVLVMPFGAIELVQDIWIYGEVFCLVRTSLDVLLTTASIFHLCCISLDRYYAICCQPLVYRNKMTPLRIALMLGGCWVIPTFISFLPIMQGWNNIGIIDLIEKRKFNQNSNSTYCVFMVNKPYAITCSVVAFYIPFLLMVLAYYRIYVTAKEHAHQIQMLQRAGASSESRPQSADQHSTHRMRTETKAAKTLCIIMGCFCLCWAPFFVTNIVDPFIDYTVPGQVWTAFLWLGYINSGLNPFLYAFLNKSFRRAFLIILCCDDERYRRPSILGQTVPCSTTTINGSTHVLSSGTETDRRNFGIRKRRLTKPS
- EXPERIMENTAL_DETAILS: Whole-cell cAMP accumulation flashplate assay with HEK-293 cells expressing human 5-HT4(c) receptors
pEC50: −log10 of the molar value.
MEASURE: pEC50

Reported pEC50, molecule CC(=O)N1CCN(CCN2C3CCC2CC(NC(=O)c2nn(C(C)C)c4ccccc24)C3)CC1 (stereo not shown) [compound of formula I] : ____
> 7.50

* * *

- EXPERIMENTAL_DETAILS: Pharmacokinetic study in the rat
- REPORTED_CONDITIONS: male, Sprague-Dawley, in vivo, PO 5 mg/kg vs IV 2.5 mg/kg, read-out: oral bioavailability (F(%))
MEASURE: bioavailability

Reported bioavailability, compound CC(=O)N1CCN(CCN2C3CCC2CC(NC(=O)c2nn(C(C)C)c4ccccc24)C3)CC1 (stereo not shown) : ____
~100%

* * *

- TARGET_DESC: hERG cardiac potassium channel (Homo sapiens)
- Construct: host or cells: CHO-K1
- Sequence (Q12809 whole entry): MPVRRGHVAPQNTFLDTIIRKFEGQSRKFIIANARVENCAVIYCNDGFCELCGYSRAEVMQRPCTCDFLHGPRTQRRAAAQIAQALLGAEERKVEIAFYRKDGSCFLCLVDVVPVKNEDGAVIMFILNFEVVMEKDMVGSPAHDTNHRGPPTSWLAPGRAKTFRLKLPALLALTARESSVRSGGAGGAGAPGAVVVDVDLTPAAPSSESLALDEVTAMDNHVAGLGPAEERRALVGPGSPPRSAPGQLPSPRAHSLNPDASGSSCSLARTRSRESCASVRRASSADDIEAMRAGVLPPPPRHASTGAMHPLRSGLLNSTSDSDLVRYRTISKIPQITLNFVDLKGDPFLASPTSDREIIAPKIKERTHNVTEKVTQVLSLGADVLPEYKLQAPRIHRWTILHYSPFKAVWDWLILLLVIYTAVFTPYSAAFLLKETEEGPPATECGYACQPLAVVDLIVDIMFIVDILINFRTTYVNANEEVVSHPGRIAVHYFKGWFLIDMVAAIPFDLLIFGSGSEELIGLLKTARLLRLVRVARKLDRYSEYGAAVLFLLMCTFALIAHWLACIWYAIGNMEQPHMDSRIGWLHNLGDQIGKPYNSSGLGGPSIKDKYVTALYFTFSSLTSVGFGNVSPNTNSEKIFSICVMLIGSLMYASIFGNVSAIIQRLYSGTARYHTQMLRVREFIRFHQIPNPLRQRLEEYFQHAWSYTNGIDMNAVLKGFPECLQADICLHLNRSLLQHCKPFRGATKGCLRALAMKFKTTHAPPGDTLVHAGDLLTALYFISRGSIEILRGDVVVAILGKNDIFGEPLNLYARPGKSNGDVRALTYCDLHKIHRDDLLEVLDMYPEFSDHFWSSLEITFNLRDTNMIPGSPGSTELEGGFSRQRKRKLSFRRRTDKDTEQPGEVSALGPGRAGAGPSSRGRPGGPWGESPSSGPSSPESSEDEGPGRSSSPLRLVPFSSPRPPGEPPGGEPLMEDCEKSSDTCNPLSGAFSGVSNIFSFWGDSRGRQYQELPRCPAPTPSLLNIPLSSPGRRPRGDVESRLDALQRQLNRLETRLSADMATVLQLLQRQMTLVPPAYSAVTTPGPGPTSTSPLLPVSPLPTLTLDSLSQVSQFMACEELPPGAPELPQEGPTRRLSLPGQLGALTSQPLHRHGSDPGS
- EXPERIMENTAL_DETAILS: In vitro voltage clamp assay of inhibition of potassium ion current in whole cells expressing hERG
- Assay type: cell-based
- REPORTED_CONDITIONS: pH 7.4, 5 minutes exposure, CHO-K1 cells
MEASURE: inhibition at 5 min, 3 µM

Lab note: need inhibition at 5 min, 3 µM with hERG cardiac potassium channel (Homo sapiens) for entry CC(=O)N1CCN(CCN2C3CCC2CC(NC(=O)c2nn(C(C)C)c4ccccc24)C3)CC1 (stereo not shown) [compound of formula I] , please look it up.
< 15%

* * *

- EXPERIMENTAL_DETAILS: Pharmacokinetic study in the rat
- REPORTED_CONDITIONS: in vivo, male Sprague-Dawley rats, PO 5 mg/kg, blood plasma
MEASURE: AUC(0-t) (ng·h/mL)
Note: unit ng·h/mL is implicit; provide only the numeric part.

Reported AUC(0-t), molecule CC(=O)N1CCN(CCN2C3CCC2CC(NC(=O)c2nn(C(C)C)c4ccccc24)C3)CC1 (stereo not shown) [compound of formula I] : ____
730

* * *

- EXPERIMENTAL_DETAILS: Differential scanning calorimetry (DSC)
- Type: physicochemical
- Experimental: Differential scanning calorimetry (DSC) was performed using a TA Instruments Model Q-100 module. Data were collected and analyzed using TA Instruments Thermal Advantage for Q Series™ software. A sample of about 1-2 mg was accurately weighed into an aluminum pan with lid. The sample was evaluated using a linear heating ramp of 5° C./min from ambient temperature to at least 225° C. […] The crystalline acid salts of the compound of formula I of Comparative Examples 1-4 were analyzed by PXRD, DSC, and TGA. […]
MEASURE: DSC endotherm (temperature of endothermic heat flow)

Reported DSC endotherm (temperature of endothermic heat flow), compound O=[N+]([O-])O [nitrate] : ____
<100 °C

Reported DSC endotherm (temperature of endothermic heat flow), compound CC(=O)N1CCN(CCN2[C@@H]3CC[C@H]2CC(NC(=O)c2nn(C(C)C)c4ccccc24)C3)CC1.O=C(O)/C=C/C(=O)O (stereo partly shown) [fumarate] : ____
<150 °C

Reported DSC endotherm (temperature of endothermic heat flow), compound CC(=O)N1CCN(CCN2[C@@H]3CC[C@H]2CC(NC(=O)c2nn(C(C)C)c4ccccc24)C3)CC1.Cc1ccc(S(=O)(=O)O)cc1 (stereo partly shown) [tosylate] : ____
>200 °C
